# credit: patent US20180171001A1

# study_target: Env of HIV-1 strain 251-18 (HIV-1)
# protocol_notes: cell-based or functional assay
parameter_measured: neutralization IC50 (µg/mL)

binder	parameter_measured	u	bound_operator	reading
γ59κ61 (antibody, V domains shown) VH: QIHLVQSGTEVKKPGSSVTVSCKAYGVNTFGLYAVNWVRQAPGQGLEYIGQIWRWKSSASHHFRGRVLISAVDLTGSSPPISSLEIKNVTSDDTAVYFCTTTSTYDEWSDLHHDGVMAFSSWGQGTLISVSA VL: DIQMTQSPSTLSASIGDTVRISCRASQSITGNWVAWYHQRPGKAPRLLIYRGAALLGGVPSRFSGSAAGTDFTLTIGNLQAEDFGTFYCQQYDTYPGTFGQGTKVEVKR	neutralization IC50	µg/mL	=	1.4
γ23κ18 (antibody, V domains shown) VH: QIHLVQSGTEVKKPGSSVTVSCKAYGVNTFGLYAVNWVRQAPGQSLEYIGQIWRWKSSASHHFRGRVIISAVDLTGSSPPISSLEIKNLTSDDTAVYFCTTTSTSDYWSGLHHDGVMAFSSWGQGTLISVSA VL: DIQMTQSPSTLSASVGDTVRISCRASQSITGGWLAWYHQRPGKAPRLLIYRGSRLLGGVPSRFSGSAAGADFTLTIANLQAEDFGTFYCQQYDTYPGTFGQGTKVEVKR	neutralization IC50	µg/mL	=	1.58
γ22κ18 (antibody, V domains shown) VH: QIHLVQSGTEVKKPGSSVTVSCKAYGVNTFGLYAVNWVRQAPGQSLEYIGQIWRWKSSASHHFRGRVLISAVDLTGPSPPISSLEIKNLTSDDTAVYFCTTTSTYDKWSGLHHDGVMAFSSWGQGTLISVSA VL: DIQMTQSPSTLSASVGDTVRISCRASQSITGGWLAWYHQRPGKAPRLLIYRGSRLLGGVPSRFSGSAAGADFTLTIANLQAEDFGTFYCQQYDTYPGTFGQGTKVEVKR	neutralization IC50	µg/mL	>	15
